All values here come from paper PMC10134960.

pKi by entry:
# test-system: CA II (Homo sapiens)
pKi: −log10 of the molar value.

COc1ccc(/C(C)=N/N=C2/C(=O)N(C)c3ccc(Cl)cc32)cc1S(N)(=O)=O [Compound 11b] :: < 4.00

Q: Lab request: please report pKi under test system CA II (Homo sapiens) for COc1ccc(/C(C)=N/N=C2/C(=O)N(Cc3ccccc3)c3ccc(Cl)cc32)cc1S(N)(=O)=O [Compound 12b]
A: < 4.00

Q: Lab request: please report pKi under test system CA II (Homo sapiens) for COc1ccc(/C(C)=N/N=C2/C(=O)N(C)c3ccc(Br)cc32)cc1S(N)(=O)=O [Compound 11c]
A: < 4.00
